# Test system: A-375
# protocol text: Antiproliferative activity against human A375 cells after 72 hrs by CCK-8 assay
# Assay type: functional, cell-based
# assay setup: A-375, 72 h
Exercise: state measured pIC50 for each of the compounds provided.
On this scale, pIC50 is minus log10 of a concentration expressed in M (mol/L).

*Q* What value of pIC50 has been recorded for this entry: Nc1ccccc1NC(=O)c1ccc(CSC(=S)N2CCc3ccccc3C2)cc1
*A* 5.71

*Q* What value of pIC50 has been recorded for this entry: CCN(Cc1ccncc1)C(=S)SCc1ccc(C(=O)Nc2ccccc2N)cc1
*A* 5.71

*Q* What value of pIC50 has been recorded for this entry: Nc1ccccc1NC(=O)c1ccc(CSC(=S)N2CCN(c3ccccc3)CC2)cc1
*A* 5.44

*Q* What value of pIC50 has been recorded for this entry: CC1CCCCN1C(=S)SCc1ccc(C(=O)Nc2ccccc2N)cc1 (configuration not stated)
*A* 5.58

*Q* What value of pIC50 has been recorded for this entry: Nc1ccc(F)cc1NC(=O)c1ccc(CNC(=O)/C=C/c2cccnc2)cc1
*A* 5.12

*Q* What value of pIC50 has been recorded for this entry: Nc1ccccc1NC(=O)c1ccc(CSC(=S)N2CCc3cc(Cl)ccc32)cc1
*A* 5.28

*Q* What value of pIC50 has been recorded for this entry: Nc1ccccc1NC(=O)c1ccc(CSC(=S)N2CCN(c3ccc(F)cc3)CC2)cc1
*A* 5.03

---

# Tested on: A-375
# protocol text: Antiproliferative activity against human A375 cells at 8 uM after 72 hrs by CCK-8 assay relative to control
# Format: functional
# assay setup: A-375, 72 h
measured property: inhibition at 8 µM (%)
The answer is to be given in %; state only the numeric part.

*Q* What value of inhibition at 8 µM has been recorded for this entry: Nc1ccccc1NC(=O)c1ccc(CSC(=S)N2CCN(CCc3ccccc3)CC2)cc1
*A* 76.6

*Q* What value of inhibition at 8 µM has been recorded for this entry: Nc1ccccc1NC(=O)c1ccc(CSC(=S)N2CCCC2)cc1
*A* 89.5

*Q* What value of inhibition at 8 µM has been recorded for this entry: Nc1ccccc1NC(=O)c1ccc(CSC(=S)N2CCN(c3cnccn3)CC2)cc1
*A* 85.8

*Q* What value of inhibition at 8 µM has been recorded for this entry: Nc1ccccc1NC(=O)c1ccc(CSC(=S)N2CCN(c3cccnc3)CC2)cc1
*A* 88.8

*Q* What value of inhibition at 8 µM has been recorded for this entry: N#Cc1ccc(N2CCN(C(=S)SCc3ccc(C(=O)Nc4ccccc4N)cc3)CC2)cc1
*A* 62.9

---

# System: SMMC-7721
# protocol text: Cell cycle arrest in human SMMC7721 cells assessed as accumulation of cells at G2/M phase at 0.125 umol/L after 72 hrs by propidium iodide staining-based flow cytometric analysis (reference value: 14.14%)
# Format: functional
measured property: Activity (%)
The answer is to be given in %; state only the numeric part.

*Q* What value of Activity has been recorded for this entry: CCN(Cc1ccncc1)C(=S)SCc1ccc(C(=O)Nc2ccccc2N)cc1
*A* 11.92

*Q* What value of Activity has been recorded for this entry: Nc1ccccc1NC(=O)c1ccc(CSC(=S)N2CCN(c3ccncc3)CC2)cc1
*A* 12.01

*Q* What value of Activity has been recorded for this entry: Nc1ccccc1NC(=O)c1ccc(CNC(=O)OCc2cccnc2)cc1 [ENTINOSTAT]
*A* 17.36

*Q* What value of Activity has been recorded for this entry: Nc1ccccc1NC(=O)c1ccc(CSC(=S)N2CCc3ccccc3C2)cc1
*A* 15.89

*Q* What value of Activity has been recorded for this entry: Nc1ccc(F)cc1NC(=O)c1ccc(CNC(=O)/C=C/c2cccnc2)cc1
*A* 17.2
